test system: 621-103 (TSC2-rescued); assay: relative viability vs DMSO; higher = less cytotoxic; conditions: 0.01 µM; serum: 10% FBS; 72 h;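 also: immortalized renal angiomyolipoma cells stably carrying empty vector or TSC2, dosed in 384-well plates in DMEM, viability normalized to vehicle-treated wells within each plate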
Where a name gives a salt, the structure may show the parent alone.
attribute.measured: relative viability (%)
The answer is to be given in %; state only the numeric part.

// solved cases for relative viability follow
compound | assayed.target | relative viability [%]
COc1ccc(-c2oc3c(CC=C(C)C)c(O[C@@H]4O[C@H](CO)[C@@H](O)[C@H](O)[C@H]4O)cc(O)c3c(=O)c2O[C@@H]2O[C@@H](C)[C@H](O)[C@@H](O)[C@H]2O)cc1 | 621-103 (TSC2-rescued) | 109
CC[C@H](Nc1ncnc2[nH]cnc12)c1nc2cccc(F)c2c(=O)n1-c1ccccc1 | 621-103 (TSC2-rescued) | 114
COc1cccc2c1C(=O)c1c(O)c3c(c(O)c1C2=O)C[C@@](O)(C(=O)CO)C[C@@H]3O[C@H]1C[C@H](N)[C@H](O)[C@H](C)O1 | 621-103 (TSC2-rescued) | 87.9
CN(C)CCOC(c1ccccc1)c1ccccc1 [Diphenhydramine HCl] | 621-103 (TSC2-rescued) | 106

Problem: Any idea what its relative viability is? The compound is O=C(c1ccccc1)c1ccc2n1CCC2C(=O)O (stereo not given)
Solution: 128

Problem: # query: relative viability of entry CN(C)C(=O)[C@H](O)[C@H](Cc1ccccc1)NC(=O)c1cc2cc(Cl)ccc2[nH]1
Solution: 108

Problem: Which relative viability is reported for this compound? CCC[C@H](N[C@@H](C)C(=O)N1[C@H](C(=O)O)C[C@@H]2CCCC[C@@H]21)C(=O)OCC
Solution: 84.6

Problem: Requested read-out: relative viability. Entry: CC1=C(C(=O)Nc2cc3cn[nH]c3cc2F)C(c2ccc(C(F)(F)F)cc2)CC(=O)N1 (stereo not given)
Solution: 101

Problem: Any idea what its relative viability is? The compound is COc1cc2/c(=N/c3ccc(Br)cc3F)nc[nH]c2cc1OCC1CCN(C)CC1
Solution: 98.8

Problem: # query: relative viability of entry CN(C)C/C=C/C(=O)Nc1cc2c(Nc3ccc(F)c(Cl)c3)ncnc2cc1O[C@H]1CCOC1
Solution: 103

Data credit: the supplement of paper PMC8960247
